Molecular target: T1, human IFNAR-1 protein (form not stated) (human, UniProt P17181 28-436, limits assumed)
T1 construct: bispecific ELISA
T1 sequence (looked up): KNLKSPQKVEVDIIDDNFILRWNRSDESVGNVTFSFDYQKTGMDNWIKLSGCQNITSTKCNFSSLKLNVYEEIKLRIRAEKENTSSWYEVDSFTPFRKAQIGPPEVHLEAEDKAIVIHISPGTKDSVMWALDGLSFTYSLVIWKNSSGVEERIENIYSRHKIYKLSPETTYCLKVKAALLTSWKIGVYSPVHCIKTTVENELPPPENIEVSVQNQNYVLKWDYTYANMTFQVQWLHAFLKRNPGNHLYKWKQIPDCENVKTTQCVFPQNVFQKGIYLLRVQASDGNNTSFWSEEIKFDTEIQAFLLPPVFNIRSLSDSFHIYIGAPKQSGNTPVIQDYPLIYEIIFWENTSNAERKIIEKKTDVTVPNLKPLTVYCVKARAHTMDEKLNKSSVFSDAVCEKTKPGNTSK
Test: affinity ranking of expressed humanized 8G11 IgGs (method not named)
Recorded Endpoint: koff (s⁻¹)

1. 8G11 humanized VH3 + VL4 (antibody, V domains shown, Humanized IgG expressed in HEK293; also called VH3 + VL4 (8G11)) VH: QVQLVQSGAEVVKPGASVKVSCKGSGFNIKDYYMHWVKQAPGQGLEWIGRIDPEDAETKYAPKFQGRVTITADTSTSTVYLELSSLRSEDTAVYYCARGGNFYVMDYWGQGTLVTVSS VL: DIQMTQSPSFLSTSVGDRVTVTCKASQNVGTNVVWYQQKPGKSPKVLIYSASYRVSGVPSRFSGSGSGTEFTLIISSVQPEDFATYFCQQKNNYPYTFGQGTKLEIK | 0.000113
2. 8G11 humanized VH3 + VL2 (antibody, V domains shown, Humanized IgG expressed in HEK293; also called VH3 + VL2 (8G11)) VH: QVQLVQSGAEVVKPGASVKVSCKGSGFNIKDYYMHWVKQAPGQGLEWIGRIDPEDAETKYAPKFQGRVTITADTSTSTVYLELSSLRSEDTAVYYCARGGNFYVMDYWGQGTLVTVSS VL: DIQLTQSPSFLSTSVGDRVTITCKASQNVGTNVVWYQQKPGKSPKVLIYSASYRVSGVPSRFSGSGSGTEFTLIISSLQPEDFATYYCQQKNNYPYTFGQGTKLEIK | 0.000111
3. 8G11 humanized VH1 + VL4 (antibody, V domains shown, Humanized IgG expressed in HEK293; also called VH1 + VL4 (8G11)) VH: QVQLVQSGAEVKKPGASVKVSCKASGFNIKDYYMHWVRQAPGQGLEWMGRIDPEDAETKYAPKFQGRVTMTRDTSTSTVYMELSSLRSEDTAVYYCARGGNFYVMDYWGQGTLVTVSS VL: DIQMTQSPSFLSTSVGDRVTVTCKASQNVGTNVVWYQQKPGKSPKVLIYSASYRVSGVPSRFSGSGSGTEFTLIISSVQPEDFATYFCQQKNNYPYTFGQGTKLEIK | 0.000141
4. 8G11 humanized VH1 + VL3 (antibody, V domains shown, Humanized IgG expressed in HEK293; also called VH1 + VL3 (8G11)) VH: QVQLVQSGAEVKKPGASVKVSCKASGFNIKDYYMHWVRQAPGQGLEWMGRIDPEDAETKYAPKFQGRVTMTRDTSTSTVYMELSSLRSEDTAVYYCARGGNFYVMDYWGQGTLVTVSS VL: DIQLTQSPSFLSTSVGDRVTITCKASQNVGTNVVWYQQKPGKSPKVLIYSASYRVSGVPSRFSGSGSGTEFTLIISSVQPEDFATYFCQQKNNYPYTFGQGTKLEIK | 0.0002
5. 8G11 humanized VH2 + VL3 (antibody, V domains shown, Humanized IgG expressed in HEK293; also called VH2 + VL3 (8G11)) VH: QVQLVQSGAEVVKPGASVKVSCKGSGFNIKDYYMHWVRQAPGQGLEWIGRIDPEDAETKYAPKFQGRVTMTADTSTSTVYMELSSLRSEDTAVYYCARGGNFYVMDYWGQGTLVTVSS VL: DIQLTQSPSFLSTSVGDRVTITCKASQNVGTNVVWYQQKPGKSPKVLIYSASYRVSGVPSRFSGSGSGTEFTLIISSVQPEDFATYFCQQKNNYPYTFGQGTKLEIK | 9.65e-05
6. 8G11-H4L3 (antibody, V domains shown, Humanized IgG expressed in HEK293; also called VH4 + VL3 (8G11)) VH: QVQLVQSGAEVVKPGASVKLSCKGSGFNIKDYYMHWVKQAPGQGLEWIGRIDPEDAETKYAPKFQGRATITADTSTSTAYLELSSLRSEDTAVYYCARGGNFYVMDYWGQGTLVTVSS VL: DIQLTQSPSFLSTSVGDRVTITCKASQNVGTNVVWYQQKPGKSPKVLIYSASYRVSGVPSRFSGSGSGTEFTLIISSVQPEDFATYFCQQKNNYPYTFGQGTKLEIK | 8.52e-05
7. 8G11-H2L1 (antibody, V domains shown, Humanized IgG expressed in HEK293; also called VH2 + VL1 (8G11)) VH: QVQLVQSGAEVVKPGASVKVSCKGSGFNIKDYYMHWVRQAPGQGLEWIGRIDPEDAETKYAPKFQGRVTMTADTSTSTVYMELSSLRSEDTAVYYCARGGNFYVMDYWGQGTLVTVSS VL: DIQLTQSPSFLSASVGDRVTITCKASQNVGTNVVWYQQKPGKAPKLLIYSASYRVSGVPSRFSGSGSGTEFTLTISSLQPEDFATYYCQQKNNYPYTFGQGTKLEIK | 8.84e-05
8. 8G11-H2L2 (antibody, V domains shown, Humanized IgG expressed in HEK293; also called VH2 + VL2 (8G11)) VH: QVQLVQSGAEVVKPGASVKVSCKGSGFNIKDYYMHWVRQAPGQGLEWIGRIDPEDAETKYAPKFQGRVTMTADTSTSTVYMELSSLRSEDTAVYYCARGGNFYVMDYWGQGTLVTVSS VL: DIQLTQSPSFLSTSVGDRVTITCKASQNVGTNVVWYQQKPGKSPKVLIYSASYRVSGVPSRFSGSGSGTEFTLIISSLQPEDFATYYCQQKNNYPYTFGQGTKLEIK | 9.42e-05
9. 8G11 humanized VH4 + VL1 (antibody, V domains shown, Humanized IgG expressed in HEK293; also called VH4 + VL1 (8G11)) VH: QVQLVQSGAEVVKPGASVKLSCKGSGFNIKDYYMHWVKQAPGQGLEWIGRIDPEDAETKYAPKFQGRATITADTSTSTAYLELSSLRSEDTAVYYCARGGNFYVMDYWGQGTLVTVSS VL: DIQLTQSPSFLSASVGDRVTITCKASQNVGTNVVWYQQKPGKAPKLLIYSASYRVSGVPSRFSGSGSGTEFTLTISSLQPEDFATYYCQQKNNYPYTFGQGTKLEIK | 9.94e-05
10. 8G11 humanized VH3 + VL3 (antibody, V domains shown, Humanized IgG expressed in HEK293; also called VH3 + VL3 (8G11)) VH: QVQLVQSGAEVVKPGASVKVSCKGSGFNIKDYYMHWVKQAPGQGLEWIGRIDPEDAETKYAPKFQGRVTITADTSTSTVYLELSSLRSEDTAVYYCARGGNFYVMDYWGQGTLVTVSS VL: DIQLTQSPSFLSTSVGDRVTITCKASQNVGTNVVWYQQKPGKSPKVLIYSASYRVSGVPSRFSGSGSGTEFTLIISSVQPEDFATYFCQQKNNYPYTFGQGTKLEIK | 0.00011
